# Test system: SN12C renal
# Procedure summary: NCI tumour cell line growth inhibition, 48 h
Outcome measure: GI50

- CCCC(=O)NC(c1cccnc1)c1ccc2c(C)ccnc2c1O (centres undefined): 2.37 µM
- CC1=C(C)C(=O)C(Nc2cccc(C(F)(F)F)c2)=C(Cl)C1=O: 4.25 µM
- CC1=C2C(=C[C@@](C)(COC(=O)c3ccc(S(=O)(=O)F)cc3)[C@@H]2OC(=O)c2ccc(S(=O)(=O)F)cc2)C(=O)[C@](C)(O)C12CC2: 1.73 µM
- C[C@]12CC[C@H]3[C@@H](CC=C4C[C@@H](O)CC[C@@]43C)[C@@H]1CC[C@@H]2[C@](C)(O)CCc1cccnc1: 47.1 µM
